test system: Human immunodeficiency virus 1; assay: Antiviral activity against wild type Human immunodeficiency virus 1 infected human MT4 cells assessed as inhibition of virus-induced cytopathic effect after 4 days by MTT assay; type: functional, organism-based; conditions: Human immunodeficiency virus 1, MT4, 96 h
Collected EC50 values appear next to each entry.

// below: answered molecules
* Cc1cc(C(=O)OCCN2C(=O)c3ccccc3C2=O)ccc1Br | 60 µM
* O=C(OCN1C(=O)c2ccccc2C1=O)c1cc(F)ccc1F | > 100 µM
* O=C(OCCN1C(=O)c2ccccc2C1=O)c1cccc(F)c1F | > 100 µM
* O=C(OCCN1C(=O)c2ccccc2C1=O)c1cc(F)cc(F)c1 | > 100 µM
* O=C(OCCN1C(=O)[C@H]2CCCC[C@H]2C1=O)c1cc(F)ccc1F | > 100 µM

Field: next molecule
Name the recorded EC50 for `CCCCCc1ccc(C(=O)OCCN2C(=O)c3ccccc3C2=O)cc1` .
14 µM

---

tested on: Human immunodeficiency virus 1; assay: Antiviral activity against wild type Human immunodeficiency virus 1 infected human MT4 cells assessed as inhibition of virus-induced cytopathic effect after 4 days by MTT assay; assay type: functional, organism-based; settings: Human immunodeficiency virus 1, MT4, 96 h
reported.endpoint: EC50 (µM)
State just the number; it will be interpreted in µM.

// below: answered compounds
• O=C(OCCN1C(=O)c2ccccc2C1=O)c1cccc(F)c1 = 75
• O=C(OCCN1C(=O)c2ccccc2C1=O)c1ccccc1 = 55
• O=C(OCCN1C(=O)c2ccccc2C1=O)c1ccc([N+](=O)[O-])cc1Cl = 15

What EC50 appears in the records for this compound with Human immunodeficiency virus 1? `O=C(OCCN1C(=O)c2ccccc2C1=O)c1cccc(Cl)c1`
93

Quick one: `O=C(OCCN1C(=O)c2ccccc2C1=O)c1ccccc1Cl`
80

Quick one: `Cc1ccc(F)cc1C(=O)OCCN1C(=O)c2ccccc2C1=O`
47

---

tested on: Human immunodeficiency virus 1; assay: Antiviral activity against Human immunodeficiency virus 1 harboring reverse transcriptase Y181C mutant infected human MT4 assessed as inhibition of virus-induced cytopathic effect after 4 days by MTT assay; type: functional, organism-based; conditions: Human immunodeficiency virus 1, 96 h
reported.endpoint: pEC50
// returns pEC50 (minus log10 of molar concentration), number only

Name the recorded pEC50 for `O=C(OCCN1C(=O)c2ccccc2C1=O)c1cc(F)ccc1Br` .
4.05

---

Collected CC50 values appear next to each entry.
assay: Cytotoxicity against mock infected Homo sapiens (human) MT4 cells assessed as cell viability by MTT assay; type: cell-based

// below: answered molecules
• Cc1ccc2c(c1)C(=O)N(CCOC(=O)c1ccc(Cl)c([N+](=O)[O-])c1)C2=O = 81 µM
• O=C(OCCN1C(=O)[C@H]2CCCC[C@H]2C1=O)c1ccc(Cl)c([N+](=O)[O-])c1 = 28 µM
• O=C(OCCCN1C(=O)c2ccccc2C1=O)c1ccc(Cl)c([N+](=O)[O-])c1 = > 100 µM
• CCC(C(=O)OCCN1C(=O)c2ccccc2C1=O)c1ccccc1 (racemic) = > 100 µM
• O=C(OCCN1C(=O)c2ccccc2C1=O)c1ccc(F)cc1F = > 100 µM
• O=C(OCCN1C(=O)c2ccccc2C1=O)c1cccc([N+](=O)[O-])c1 = > 100 µM
• O=C(OCCN1C(=O)c2ccccc2C1=O)c1ccc(Cl)nc1 = > 100 µM
• O=C(OCCN1C(=O)c2ccccc2C1=O)c1ccc([N+](=O)[O-])cc1Cl = > 100 µM
• O=C(OCCN1C(=O)c2ccccc2C1=O)c1cc([N+](=O)[O-])ccc1Cl = 30 µM
• CC(CN1C(=O)c2ccccc2C1=O)OC(=O)c1cc(F)ccc1F (racemic) = > 100 µM

Name the recorded CC50 for `Cc1ccc2c(c1)C(=O)N(CCOC(=O)c1cc(F)ccc1F)C2=O` .
> 100 µM
